# PROTOCOL TEXT: qHTS of pediatric cancer cell lines to identify multiple opportunities for drug repurposing: Primary screen for U-2 OS cells (AID 1347096); further: nearly all actives have a fitted effect of over 50% in size
# MEASUREMENT CONDITIONS: U-2 OS viability, CellTiter-Glo luminescence, 48 h; series mostly up to 46 µM
Inconclusive results are not listed. Activity calls are given as the source filed them. The call rests on the fitted dose curve; in most records, active means well fitted cell-killing curve with a large enough effect; inconclusive means small, poorly fitted or top-dose-only effect; inactive means flat fitted curve, though single readings scatter.
Valid outcomes are listed here; reply with one: label 1 (active), label 0 (inactive)

Asked: Returns: the outcome recorded for CN(C)CCC=C1c2ccccc2C=Cc2ccccc21 in this assay.
Given back: label 0

Asked: Dear colleague, could you share the recorded outcome for CC(=O)OCC(CCn1cnc2cnc(N)nc21)COC(C)=O when you have a moment?
Given back: label 0

Asked: Dear colleague, could you share the recorded outcome for CCCCc1oc2ccccc2c1C(=O)c1cc(I)c(OCCN(CC)CC)c(I)c1 when you have a moment?
Given back: label 1

Asked: Which outcome was assigned to CC(C)NCC(O)c1ccc(O)c(O)c1 (stereo unspecified) in this test?
Given back: label 0

Asked: Per the records of this test, what outcome belongs to CC(CCc1ccc(O)cc1)NCCc1ccc(O)c(O)c1 (stereo unspecified) ?
Given back: label 0

Asked: Recorded test call requested for NS(=O)(=O)c1cc2c(cc1Cl)NCNS2(=O)=O
Given back: label 0
